# Test system: RSV strain A2
# assay_remarks: RSV antiviral cytoprotection assay in Hep2 cells (RSV-induced cytopathic effect, Cell TiterGlo)
# Assay type: cell-based, Respiratory Syncytial Virus (RSV)
# test_settings: human respiratory syncytial virus, HEp-2, 0.5 μM compound; RSV A2-infected Hep2 cells; % inhibition calculated from 4-parameter dose response curve, normalized to 0% and 100%; read-out: Percent inhibition at 0.5 μM
# Procedure: Antiviral activity against RSV was determined using an in vitro cytoprotection assay in Hep2 cells. […] For antiviral tests, Hep2 cells were seeded into 96-well plates 24 hours before the assay at a density of 3,000 cells/well. […] Subsequently, appropriate dilution of virus stock previously determined by titration was prepared in cell culture media and 100 uL/well was added to test plates containing cells and serially diluted compounds. […]
measurement_label: inhibition at 0.5 µM (%)

1. Cc1cn2nc([C@@H]3CCCCN3C(=O)c3cccc4[nH]cnc34)cc2nc1N1CC[C@H](N)C1	88
2. COc1cc(C)c(C(=O)N2CCCC[C@H]2c2cc3nc(N4C[C@@H](C#N)[C@@H](O)C4)c(C)cn3n2)cc1C	100
3. Cc1cn2nc([C@@H]3CCCCN3C(=O)c3cccc4cn[nH]c34)cc2nc1N1CC[C@H](N)C1	100
4. Cc1cn2nc([C@@H]3CCCCN3C(=O)c3ccccc3-c3ccccc3)cc2nc1N1C[C@@H](C#N)[C@@H](O)C1	94
5. Cc1cn2nc([C@@H]3CCCCN3C(=O)c3ccc(-c4ccccc4)cn3)cc2nc1N1CC[C@H](N)C1	9
6. Cc1ccc(Cl)cc1C(=O)N1CCCC[C@H]1c1cc2nc(N3C[C@@H](C#N)[C@@H](O)C3)c(C)cn2n1	100
7. COc1cc(C)ccc1C(=O)N1CCCC[C@H]1c1cc2nc(N3C[C@@H](C#N)[C@@H](O)C3)c(C)cn2n1	98

###

# Tested on: RSV strain A2
# assay_remarks: RSV antiviral cytoprotection assay in Hep2 cells (RSV-induced cytopathic effect, Cell TiterGlo)
# Type: cell-based, Respiratory Syncytial Virus (RSV)
# test_settings: human respiratory syncytial virus, HEp-2, 0.5 μM compound; RSV A2-infected Hep2 cells; % inhibition calculated from 4-parameter dose response curve, normalized to 0% and 100%; read-out: Percent inhibition at 0.5 μM
Label Satisfied when inhibition at 0.5 µM is at or above 60%; otherwise label Not satisfied.

1) Cc1noc(-c2ccccc2C(=O)N2CCCC[C@H]2c2cc3nc(N4CC[C@H](N)C4)c(C)cn3n2)n1 [Compound 47]	Satisfied
2) Cc1cn2nc([C@@H]3CCCCN3C(=O)c3cc(Cl)cc(Cl)n3)cc2nc1N1CC[C@H](N)C1 [Compound 100]	Satisfied
3) Cc1cn2nc([C@@H]3CCCCN3C(=O)c3ccccc3OC3CCCC3)cc2nc1N1CC[C@H](N)C1 [Compound 66]	Satisfied
4) Cc1cn2nc([C@@H]3CCCCN3C(=O)c3cc(Cl)ccc3NS(C)(=O)=O)cc2nc1NCC1CCCNC1 (some centres unmarked) [Compound 15]	Satisfied
5) Cc1cn2nc([C@@H]3CCCCN3C(=O)c3cc(Cl)ccc3NS(C)(=O)=O)cc2nc1N1CCN[C@@H](C(C)C)C1 [Compound 22]	Not satisfied
6) Cc1cn2nc([C@@H]3CCCCN3C(=O)c3cc(C(F)(F)F)ccn3)cc2nc1N1C[C@@H](C#N)[C@@H](O)C1 [Compound 168]	Not satisfied
7) Cc1ccc(C(=O)N2CCCC[C@H]2c2cc3nc(N4CC[C@H](N)C4)c(C)cn3n2)c(C(F)(F)F)c1 [Compound 36]	Satisfied
8) Cc1cn2nc([C@@H]3CCCCN3C(=O)c3cccc(-c4ccccc4)n3)cc2nc1N1CC[C@H](N)C1 [Compound 80]	Not satisfied
9) Cc1cn2nc([C@@H]3CCCCN3C(=O)c3cc(F)ccc3C(F)(F)F)cc2nc1N1CC[C@H](N)C1 [Compound 109]	Satisfied
10) Cc1cc(C)n2c(C(=O)N3CCCC[C@H]3c3cc4nc(N5CC[C@H](N)C5)c(C)cn4n3)nnc2n1 [Compound 55]	Not satisfied
11) COc1cccc(C(=O)N2CCCC[C@H]2c2cc3nc(N4C[C@@H](C#N)[C@@H](O)C4)c(C)cn3n2)c1C [Compound 165]	Satisfied
12) Cc1cn2nc([C@@H]3CCCCN3C(=O)c3cc(Cl)ccc3OC(C)C)cc2nc1N1CC[C@H](N)C1 [Compound 63]	Satisfied
13) Cc1cn2nc([C@@H]3CCCCN3C(=O)c3ncc(C(F)(F)F)cc3Cl)cc2nc1N1CC[C@H](N)C1 [Compound 105]	Not satisfied
14) CN[C@H]1CCN(c2nc3cc([C@@H]4CCCCN4C(=O)c4cc(Cl)ccc4NS(C)(=O)=O)nn3cc2C)C1 [Compound 11]	Satisfied
